The values you see were collected from PubChem BioAssay AID1963840.

System: 695427-040-R-J1-PDC complex spheroid viability
experimental protocol: Anticancer human tumor 695427-040-R-J1-PDC patient-derived colon adenocarcinoma cell line growth inhibition [POLQ]
settings: second compound 0.316 µM; first compound 0.0316 µM; stronger effect = lower value
# viability, T/C values compiled below
Output spec: scalar in %, unitless text.

Solved cases below.
molecule: CC1COCCN1c1cc(C2(S(C)(=N)=O)CC2)nc(-c2ccnc3[nH]ccc23)n1 (stereo not drawn) + Nc1ccc(C#CCN(C(=O)Cc2ncc(C(F)(F)F)cc2C(F)(F)F)c2ccc(F)cc2)nn1
target or system: 695427-040-R-J1-PDC complex spheroid viability
obs value: 96.8
--
molecule: COc1cccc2c1C(=O)c1c(O)c3c(c(O)c1C2=O)CC(O)(C(=O)CO)CC3OC1CC(N)C(O)C(C)O1 (stereo not drawn) + Nc1ccc(C#CCN(C(=O)Cc2ncc(C(F)(F)F)cc2C(F)(F)F)c2ccc(F)cc2)nn1
target or system: 695427-040-R-J1-PDC complex spheroid viability
obs value: 99.6

// moving on: another record for viability, T/C
# query: viability, T/C of entry Nc1ccn(C2OC(CO)C(O)C2(F)F)c(=O)n1 (stereo not drawn) + Nc1ccc(C#CCN(C(=O)Cc2ncc(C(F)(F)F)cc2C(F)(F)F)c2ccc(F)cc2)nn1
106

---

Test system: 695427-040-R-J1-PDC complex spheroid viability
experimental protocol: Anticancer human tumor 695427-040-R-J1-PDC cell line growth inhibition [POLQ];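 also: spheroids exposed to compounds for seven days; 100% = DMSO vehicle control viability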
settings: second compound 0.316 µM; first compound 0.0316 µM; stronger effect = lower value
observation type: viability, T/C (%)
Output spec: scalar in %, unitless text.

Solved cases below.
molecule: O=C(c1cc(Cc2n[nH]c(=O)c3ccccc23)ccc1F)N1CCN(C(=O)C2CC2)CC1 + COC1C(OC(N)=O)C(O)C(Oc2ccc3c(O)c(NC(=O)c4ccc(O)c(CC=C(C)C)c4)c(=O)oc3c2C)OC1(C)C
reading unit: %
viability, T/C: 110
--
molecule: C=CC(=O)N1CCN(c2nc(=O)n(-c3c(C)ccnc3C(C)C)c3nc(-c4c(O)cccc4F)c(F)cc23)C(C)C1 (centres undefined) + Cc1cccc(N(C)C(=O)C2C(O)CCN2c2nc(C)cc(C(F)(F)F)c2C#N)c1
reading unit: %
viability, T/C: 103
--
molecule: CC(C)n1c(=O)n(C)c2cnc3cc(F)c(-c4ccc(OCCCN5CCCCC5)nc4)cc3c21 + Nc1ccc(C#CCN(C(=O)Cc2ncc(C(F)(F)F)cc2C(F)(F)F)c2ccc(F)cc2)nn1
reading unit: %
viability, T/C: 114

# query: viability, T/C of entry C#Cc1c(F)ccc2cc(O)cc(-c3ncc4c(N5CC6CCC(C5)N6)nc(OCC56CCCN5CC(F)C6)nc4c3F)c12 (centres undefined) + COC1C(OC(N)=O)C(O)C(Oc2ccc3c(O)c(NC(=O)c4ccc(O)c(CC=C(C)C)c4)c(=O)oc3c2C)OC1(C)C
107

---

System: 695427-040-R-J1-PDC complex spheroid viability
experimental protocol: Anticancer human tumor 695427-040-R-J1-PDC cell line growth inhibition [POLQ];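 also: spheroids exposed to compounds for seven days; 100% = DMSO vehicle control viability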
settings: second compound 0.316 µM; first compound 1 µM; stronger effect = lower value
observation type: viability, T/C (%)
Output spec: scalar in %, unitless text.

molecule: O=c1[nH]cc(F)c(=O)[nH]1 + Nc1ccc(C#CCN(C(=O)Cc2ncc(C(F)(F)F)cc2C(F)(F)F)c2ccc(F)cc2)nn1
target or system: 695427-040-R-J1-PDC complex spheroid viability
observation type: viability, T/C
reading unit: %
obs value: 112

molecule: CC1COCCN1c1cc(-c2ccnn2C)c2ccnc(-c3ccn[nH]3)c2n1 (stereo not given) + Cc1cccc(N(C)C(=O)C2C(O)CCN2c2nc(C)cc(C(F)(F)F)c2C#N)c1
target or system: 695427-040-R-J1-PDC complex spheroid viability
observation type: viability, T/C
reading unit: %
obs value: 46.4

molecule: CC1COCCN1c1cc(-c2ccnn2C)c2ccnc(-c3ccn[nH]3)c2n1 (stereo not given) + Nc1ccc(C#CCN(C(=O)Cc2ncc(C(F)(F)F)cc2C(F)(F)F)c2ccc(F)cc2)nn1
target or system: 695427-040-R-J1-PDC complex spheroid viability
observation type: viability, T/C
reading unit: %
obs value: 62.5

molecule: C=CCn1c(=O)c2cnc(Nc3ccc(N4CCN(C)CC4)cc3)nc2n1-c1cccc(C(C)(C)O)n1 + Cc1cccc(N(C)C(=O)C2C(O)CCN2c2nc(C)cc(C(F)(F)F)c2C#N)c1
target or system: 695427-040-R-J1-PDC complex spheroid viability
observation type: viability, T/C
reading unit: %
obs value: 90.1

// moving on: another record for viability, T/C
# query: viability, T/C of entry CC(C)n1c(=O)n(C)c2cnc3cc(F)c(-c4ccc(OCCCN5CCCCC5)nc4)cc3c21 + COC1C(OC(N)=O)C(O)C(Oc2ccc3c(O)c(NC(=O)c4ccc(O)c(CC=C(C)C)c4)c(=O)oc3c2C)OC1(C)C
101

---

# viability, T/C values compiled below
Test system: 695427-040-R-J1-PDC complex spheroid viability
experimental protocol: Anticancer human tumor 695427-040-R-J1-PDC cell line growth inhibition [POLQ];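 also: spheroids exposed to compounds for seven days; 100% = DMSO vehicle control viability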
settings: second compound 0.316 µM; first compound 0.1 µM; stronger effect = lower value
Experimental: Multicellular complex tumor spheroid response to Polymerase (POL) inhibitors (novobiocin, ART-558, RP6685) in combination with a variety of drugs and investigational agents in selected tumor cell lines The POL inhibitors (novobiocin, ART-558, and RP6685) were evaluated both individually and in combination with standard of care and investigational anticancer small molecules within a complex spheroid model of solid tumors. . […]
Output spec: scalar in %, unitless text.

Solved cases below.
compound: CCCS(=O)(=O)Nc1ccc(F)c(C(=O)c2c[nH]c3ncc(-c4ccc(Cl)cc4)cc23)c1F + Nc1ccc(C#CCN(C(=O)Cc2ncc(C(F)(F)F)cc2C(F)(F)F)c2ccc(F)cc2)nn1
reading unit: %
viability, T/C: 108
--
compound: Cn1ncnc1[C@H]1c2n[nH]c(=O)c3cc(F)cc(c23)N[C@@H]1c1ccc(F)cc1 + Cc1cccc(N(C)C(=O)C2C(O)CCN2c2nc(C)cc(C(F)(F)F)c2C#N)c1
reading unit: %
viability, T/C: 94.7
--
compound: Nc1ccn(C2OC(CO)C(O)C2(F)F)c(=O)n1 (centres undefined) + COC1C(OC(N)=O)C(O)C(Oc2ccc3c(O)c(NC(=O)c4ccc(O)c(CC=C(C)C)c4)c(=O)oc3c2C)OC1(C)C
reading unit: %
viability, T/C: 78.5
--
compound: COc1ccc([C@@H](O)c2cc(-c3ncnc4cc(N5CCOCC5)ccc34)c(F)cc2Cl)nn1 + COC1C(OC(N)=O)C(O)C(Oc2ccc3c(O)c(NC(=O)c4ccc(O)c(CC=C(C)C)c4)c(=O)oc3c2C)OC1(C)C
reading unit: %
viability, T/C: 99.1
--
compound: O=C(Nc1ccc(O)c(NS(=O)(=O)c2ccc(F)cc2)c1)c1ccc(-c2ccccc2)cc1 + COC1C(OC(N)=O)C(O)C(Oc2ccc3c(O)c(NC(=O)c4ccc(O)c(CC=C(C)C)c4)c(=O)oc3c2C)OC1(C)C
reading unit: %
viability, T/C: 103
--
compound: CC1COCCN1c1cc(C2(S(C)(=N)=O)CC2)nc(-c2ccnc3[nH]ccc23)n1 (centres undefined) + Nc1ccc(C#CCN(C(=O)Cc2ncc(C(F)(F)F)cc2C(F)(F)F)c2ccc(F)cc2)nn1
reading unit: %
viability, T/C: 104
--
compound: COc1cccc(OCCCN)c1-c1cc(Nc2cnc(C#N)cn2)n[nH]1 + COC1C(OC(N)=O)C(O)C(Oc2ccc3c(O)c(NC(=O)c4ccc(O)c(CC=C(C)C)c4)c(=O)oc3c2C)OC1(C)C
reading unit: %
viability, T/C: 73.1
--
compound: COc1ccc([C@@H](O)c2cc(-c3ncnc4cc(N5CCOCC5)ccc34)c(F)cc2Cl)nn1 + Cc1cccc(N(C)C(=O)C2C(O)CCN2c2nc(C)cc(C(F)(F)F)c2C#N)c1
reading unit: %
viability, T/C: 104
--
compound: CC1COCCN1c1cc(C2(S(C)(=N)=O)CC2)nc(-c2ccnc3[nH]ccc23)n1 (centres undefined) + COC1C(OC(N)=O)C(O)C(Oc2ccc3c(O)c(NC(=O)c4ccc(O)c(CC=C(C)C)c4)c(=O)oc3c2C)OC1(C)C
reading unit: %
viability, T/C: 89.7
--
compound: O=C(Nc1ccc(O)c(NS(=O)(=O)c2ccc(F)cc2)c1)c1ccc(-c2ccccc2)cc1 + Cc1cccc(N(C)C(=O)C2C(O)CCN2c2nc(C)cc(C(F)(F)F)c2C#N)c1
reading unit: %
viability, T/C: 103

# query: viability, T/C of entry O=c1[nH]cc(F)c(=O)[nH]1 + Cc1cccc(N(C)C(=O)C2C(O)CCN2c2nc(C)cc(C(F)(F)F)c2C#N)c1
102

Request: CC1COCCN1c1cc(-c2ccnn2C)c2ccnc(-c3ccn[nH]3)c2n1 (centres undefined) + Cc1cccc(N(C)C(=O)C2C(O)CCN2c2nc(C)cc(C(F)(F)F)c2C#N)c1
83.5

Request: COc1cccc2c1C(=O)c1c(O)c3c(c(O)c1C2=O)CC(O)(C(=O)CO)CC3OC1CC(N)C(O)C(C)O1 (centres undefined) + Cc1cccc(N(C)C(=O)C2C(O)CCN2c2nc(C)cc(C(F)(F)F)c2C#N)c1
91.8

Request: CCc1c2c(nc3ccc(O)cc13)-c1cc3c(c(=O)n1C2)COC(=O)[C@]3(O)CC + COC1C(OC(N)=O)C(O)C(Oc2ccc3c(O)c(NC(=O)c4ccc(O)c(CC=C(C)C)c4)c(=O)oc3c2C)OC1(C)C
78.3
